These data points were gathered from the supplement of paper PMC10065799.

Biological target: Fyn (UniProt P06241)
Sequence (P06241 whole entry, looked up): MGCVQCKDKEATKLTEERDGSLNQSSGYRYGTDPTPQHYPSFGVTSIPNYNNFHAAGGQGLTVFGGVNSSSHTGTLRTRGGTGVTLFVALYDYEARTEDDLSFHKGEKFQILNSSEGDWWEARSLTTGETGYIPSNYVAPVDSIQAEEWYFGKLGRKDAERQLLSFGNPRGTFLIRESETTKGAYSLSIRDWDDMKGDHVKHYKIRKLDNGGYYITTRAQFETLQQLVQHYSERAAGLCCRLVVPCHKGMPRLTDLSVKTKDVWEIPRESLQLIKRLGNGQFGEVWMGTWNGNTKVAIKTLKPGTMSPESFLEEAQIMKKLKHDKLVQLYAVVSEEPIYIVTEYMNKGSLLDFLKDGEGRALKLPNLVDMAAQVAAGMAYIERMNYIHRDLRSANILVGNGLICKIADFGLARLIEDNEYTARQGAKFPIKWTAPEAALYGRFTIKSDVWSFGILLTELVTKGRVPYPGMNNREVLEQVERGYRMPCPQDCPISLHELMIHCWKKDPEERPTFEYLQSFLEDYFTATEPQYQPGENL
Experiment: phosphorylation enrichment, bacterial display (enrichment ratio); higher = better substrate or ligand; peptides without Tyr show the background;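 note: 11-residue human phosphosite peptides and single-mutation variants displayed on the E. coli surface, counted by deep sequencing, each peptide's frequency after selection divided by its frequency in the unselected input library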;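 note: frequency after pTyr selection over input frequency; kinase dosed for 20-30% of maximal phosphorylation in three min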
In this section we review reported phosphorylation enrichment values for a set of sequences.
// return just the number, without any unit appended

Check out these entries, answers already filled in.
WDSSGYWTPEE [PAPPA2_Y908_C903W]: 0.53
AFSLKYEQQTQ [SYTL4_Y366]: 0.437
LEAVSYSSPFA [RNLS_Y190_R193P_YF]: 0.791
VFGVSYDEFRF [CFTR_Y512_I507V_YF]: 1.13

Challenge: Return reported phosphorylation enrichment. Input sequence: SQQTYYPVSNM [ABCD1_Y181_R182P]
Response given: 3.77

Challenge: Supply measured phosphorylation enrichment of TGDFGYRAPGY [TNS2_Y668] in your reply.
Response given: 0.477

Challenge: Supply reported phosphorylation enrichment belonging to this sequence: CKLCQYFLDHL [ATRX_Y1849_Y1847C_YF]
Response given: 0.449

Challenge: // Input: LKKLEYLNLPL [LRRC6_Y70_A74P] . Output its phosphorylation enrichment only.
Response given: 0.364

Challenge: Return phosphorylation enrichment for the following sequence: LLAGLYRGQAL [FGFR4_Y390]
Response given: 0.494

Challenge: Return value of phosphorylation enrichment for input EFFENYIEELK [PARP4_Y218_F215Y_YF] , no commentary.
Response given: 0.421

Challenge: Look up and report measured phosphorylation enrichment for this entry: LGPDGYSTVDR [ARVCF_Y901]
Response given: 0.679
